// values below are reported ELISA signal (OD, 450 nm)
- Study Target: T1, hFGFR4(D2,D3)-Histag (human, UniProt P22455 22-365)
- T1 construct: also called extracellular domain of FGF-R4 deleted of its D1 domain
- T1 sequence (P22455 other isoform, or with tags, fused parts or gaps limits assumed): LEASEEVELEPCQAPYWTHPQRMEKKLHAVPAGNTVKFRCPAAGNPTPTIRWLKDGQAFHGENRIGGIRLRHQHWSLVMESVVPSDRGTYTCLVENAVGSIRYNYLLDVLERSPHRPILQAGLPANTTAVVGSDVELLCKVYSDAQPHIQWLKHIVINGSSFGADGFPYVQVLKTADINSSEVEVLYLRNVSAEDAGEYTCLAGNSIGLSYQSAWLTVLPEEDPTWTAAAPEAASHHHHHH
- Test Protocol: phage Fab ELISA on coated antigen, anti-M13 detection
Your answer is read as OD 450 nm, so omit the unit and give the number.

Take a look at these entries with their results.
Q. Return reported ELISA signal (OD, 450 nm). Input binder: clone 36 in the Fab format displayed on phage (Fab, V domains shown) VH: EVQLLESGGGLVQPGGSLRLSCAASGFTFSHYWMGWVRQAPGKGLEWVSVISPSGGLTIYADSVKGRFTISRDNSKNTLYLQMNSLRAEDTAVYYCARSSGWALDAFDIWGQGTMVTVSS VL: QYELTQPPSASGTPGQRVTISCSGSSSNIGSNIVHWYQQLPGTAPKLLIYGNNQRPSGVPDRFSVSKSGSSASLAISGLQSEDEADYYCASWDDSLKAFYVFGTGTKVTVLG
A. 1.87

Q. Please report ELISA signal (OD, 450 nm) for the following binder: clone 33 in the Fab format displayed on phage (Fab, V domains shown) VH: EVQLLESGGGLVQPGGSLRLSCAASGFTFSTYWMAWVRQAPGKGLEWVSVIGPSGGMTVYADSVKGRFTISRDNSKNTLYLQMNSLRAEDTAVYYCARINSGSSHFDYWGQGTLVTVSS VL: QSVLTQPPSASGTPGQGVTISCSGSSSNIGSNSVNWYQQLPGAAPKLLIYSNNLRPSGVPARFSGSKSGTSASLAISGLRSEDEADYYCAAWDDGLDAYVVFGGGTKLTVLG
A. 2.73

Q. Give ELISA signal (OD, 450 nm) for the following binder: clone 8 in the Fab format displayed on phage (Fab, V domains shown) VH: EVQLLESGGGLVQPGGSLRLSCAASGFTFSPYWMGWVRQAPGKGLEWVSVIWPSGGTTDYADSVKGRFTISRDNSKNTLYLQMNSLRAEDTAVYYCARVHPAGHNDHWGQGTLVTVSS VL: QSELTQPPSASGTPGQRVTISCSGGYSNMGSNYAHWYQQLPGTAPKLLIYNNNQRPSGVPDRFSGSKSGTSASLAISGLRSEDEADYYCAAWDDSLSGPVFGGGTKLTVLG
A. 2.55

API: the following record is the query input.
Q. Return reported ELISA signal (OD, 450 nm). Input binder: clone 31 in the Fab format displayed on phage (Fab, V domains shown) VH: EVQLLESGGGLVQPGGSLRLSCAASGFTFSRYFMKWVRQAPGKGLEWVSWISPSGGLTEYADSVKGRFTISRDNSKNTLYLQMNSLRAEDTAVYYCARASYGAWLDYWGQGTLVTVSS VL: DIQMTQSPSSLSLSPGERATLSCRASQSINRNLGWYQQKPGQAPRLLIYGASTRATGIPARFTGSGSGTEFSLTISSLQSEDYAIYYCQQYDNWPIIFGQGTRLEIKG
A. 2.52
